Where do these numbers come from? They come from PubChem BioAssay AID651658.

biological target: Fibroblast growth factor 22 (Homo sapiens); assay: binders of human FGF22 protein, primary screen, FGF22 synaptogenesis inhibitor project, biophysical, thermal shift, single point (AID 651658); conditions: recombinant FGF22 thermal shift, SYPRO orange fluorescence; at 9.99 µM; active compounds read high; percent of sucrose octasulfate shift, DMSO zero
About 5,100 (1.5%) of roughly 340,000 compounds were called active. What follows is part of a selection rich in actives, with near analogues and random picks from the rest.
PARAMETER_MEASURED: activity (Tm shift, normalised) (%)
Supply the numeric figure in %, leaving out any unit text.

molecule=COc1ccc(CN(C)C[C@@H]2OCCCC[C@@H](C)Oc3ccc(NS(=O)(=O)c4ccc(F)cc4)cc3C(=O)N([C@@H](C)CO)C[C@H]2C)cc1 parameter_measured="activity (Tm shift, normalised)" experimental_result=-0.218
molecule=CO[C@H](CN(C)C(=O)c1cnccn1)[C@@H](C)CN([C@@H](C)CO)S(=O)(=O)c1ccccc1 parameter_measured="activity (Tm shift, normalised)" experimental_result=0.08
molecule=C[C@@H]1CN([C@H](C)CO)C(=O)c2cc(-c3cccc(C(=O)N(C)C)c3)cnc2O[C@H]1CN(C)S(=O)(=O)c1ccc(F)cc1 parameter_measured="activity (Tm shift, normalised)" experimental_result=-0.014
molecule=C[C@H](CO)N1C[C@H](C)[C@@H](CN(C)C(=O)Nc2ccc3c(c2)OCO3)Oc2ccc(NS(=O)(=O)c3ccc(Cl)cc3)cc2C1=O parameter_measured="activity (Tm shift, normalised)" experimental_result=0.554
molecule=O=C(C1CCCCC1)N1CC2(C1)[C@H](c1ccccc1)[C@@H](CO)N2Cc1cncnc1 parameter_measured="activity (Tm shift, normalised)" experimental_result=-0.162

Now turn to the next molecule.
Item CCC1([N+](=O)[O-])COC(c2ccc(C)cc2)OC1 (stereo not given) has what recorded activity (Tm shift, normalised)?
43.3
